- system-tested: human Peroxisome Proliferator-activated Receptor alpha (PPARa), PPARA (gene 5465) (UniProt Q07869)
- Sequence (Q07869 whole entry, looked up): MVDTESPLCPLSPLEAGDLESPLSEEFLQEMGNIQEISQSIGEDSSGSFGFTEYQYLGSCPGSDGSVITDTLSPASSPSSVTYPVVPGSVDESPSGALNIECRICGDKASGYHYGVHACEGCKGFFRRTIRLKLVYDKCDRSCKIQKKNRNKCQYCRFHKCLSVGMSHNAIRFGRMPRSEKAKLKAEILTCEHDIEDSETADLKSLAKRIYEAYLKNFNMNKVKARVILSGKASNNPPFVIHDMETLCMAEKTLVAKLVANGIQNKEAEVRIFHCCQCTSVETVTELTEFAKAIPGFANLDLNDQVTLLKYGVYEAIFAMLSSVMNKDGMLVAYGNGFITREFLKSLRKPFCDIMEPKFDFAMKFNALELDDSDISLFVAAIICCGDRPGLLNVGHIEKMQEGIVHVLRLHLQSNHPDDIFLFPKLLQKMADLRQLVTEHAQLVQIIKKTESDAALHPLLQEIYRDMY
- test-summary: ATG_PPARa_TRANS: Attagene TRANS-FACTORIAL HepG2 Assay for human Peroxisome Proliferator-activated Receptor alpha (PPARa) (AID 2283001)
Results filed as inconclusive are left out. Activity calls are given as the source filed them. Rule for the calls: active = hit-call score of the fitted dose curve at least 0.9, where 1 is the maximum; inconclusive = response in the unintended direction; inactive = score below 0.9.
Allowed answers: class 1 = active, class 0 = inactive

Field: outcome | Entry: `CCCC[C@H]1CN(CC2CCOCC2)C(=O)OC12CCN(C1(C)CCN(C(=O)c3c(C)ncnc3C)CC1)CC2` class 0

I would be grateful if you could indicate the recorded call for `Oc1ccc(O)cc1` . class 0

Dear colleague, could you share the recorded outcome for `CN(C)C(=O)NC1(c2ccccc2)CCN(CCC[C@]2(c3ccc(Cl)c(Cl)c3)CCCN(C(=O)c3ccccc3)C2)CC1` when you have a moment? class 1

Can you look up the reported call for `C=CCc1ccc(OC)c(OC)c1` for me? class 0

Tell me the assay call for `CCc1nc(N)nc(N)c1-c1ccc(Cl)cc1` please. class 0
